tested on: NCI-H522; experiment: NCI tumour cell line growth inhibition, 48 h
The source made the active and inactive calls. No stated cut-off is given here; in the data, active = GI50 up to about 1.1 µM and inactive = higher.
value.kind: GI50

// query GI50 value for entry Nn1c(-c2ccccc2)nn(C(=O)c2ccccc2)c1=O
> 100 µM (inactive)

Please look up its GI50: O=[N+]([O-])c1cc(/C=N\NS(=O)(=O)c2ccc(Cl)cc2)c(O)c([N+](=O)[O-])c1
24.5 µM (inactive)

Please report the recorded GI50 for CC(C)C1=CC2=CC[C@@H]3[C@](C)(CCC[C@@]3(C)C(=O)O)[C@H]2CC1 [ABIETIC ACID] .
45.7 µM (inactive)

Look up GI50: CN1C(CC(O)c2ccccc2)CCCC1CC(O)(c1ccccc1)c1ccccc1 (stereo not drawn)
19.9 µM (inactive)

Give its GI50 value. Item: CC(C)=CCc1c(O)ccc2ccc(=O)oc12 [OSTHENOL]
48.2 µM (inactive)

// returns reported GI50 for input CC(C)(C)C(=O)Nc1c(C=O)ccc2[nH]cnc12
> 100 µM (inactive)

# GI50 lookup, item CCCCN(CCCC)CC(O)c1cc(-c2ccc(C(F)(F)F)cc2)nc(-c2ccc(C(F)(F)F)cc2)c1 (stereo not drawn)
75.3 µM (inactive)

Need GI50 of CC12C(=O)CC(CC1=O)C2(C)C , thanks.
> 100 µM (inactive)

Please look up its GI50: COc1ccc(C(c2ccc(OC)cc2)N2C(=O)CCC2C(=O)O)cc1 (stereo not drawn)
> 100 µM (inactive)

Can you share its GI50? I mean this compound: N#CC1(C#N)C=CC(=C2OCC3CCCN23)C=C1 (stereo not drawn)
> 100 µM (inactive)

Form field: reported GI50 of CS(=O)(=O)O[C@H]1[C@H](O)c2ccccc2[C@@H]1N=[N+]=[N-]
> 100 µM (inactive)

Fill in the blank: the reported GI50 of [N-]=[N+]=CC(=O)OC1Cc2ccccc2C1 is ____.
> 71 µM (inactive)

Any idea what GI50 was measured for CCCCCCCCCCCCCCCCCCCCCCC(=O)N[C@H]1CCc2cc(OC)c(OC)c(OC)c2-c2ccc(SC)c(=O)cc21 ?
13.4 µM (inactive)

====

tested on: UO-31; test: NCI tumour cell line growth inhibition, 48 h
Activity calls are given as the source filed them. Rule as the data show it: active = GI50 up to about 1.1 µM and inactive = higher. Where a SMILES comes first, the peptide text is derived from it. The star is where a group is joined. OSu = O=C1CCC(=O)N1O*; OBn = c1ccc(CO*)cc1; Bn = c1ccc(C*)cc1
Could you please report measured GI50 for the items listed next?

Recorded GI50 for O=C(c1ccc(F)cc1)c1cccc(C(=O)c2ccc(F)cc2)n1 , please?
45.3 µM (inactive)

// GI50 lookup, key: C1=CC(=[N+]2N=C(c3ccccc3)CC2c2ccccc2)C=CC1=C1SC(c2ccccc2)(c2ccccc2)c2ccccc21.[O-][Cl+3]([O-])([O-])[O-] (stereo not drawn)
> 100 µM (inactive)

What measured GI50 goes with C=C1C(=O)O[C@H]2[C@H](OC(C)=O)[C@@H](C)CCC/C(C)=C/CC[C@@]3(C)O[C@@H]3C[C@@H]12 ?
2.9 µM (inactive)

Which measured GI50 value corresponds to [N-]=[N+]=NC1(c2ccccc2)C(=O)Nc2ccccc2C1=O (stereo not drawn) ?
22.1 µM (inactive)

Entry Cc1nc(-n2nc(-c3ccccc3)cc2-c2ccccc2)sc1C(=O)/C=C/c1ccccc1 has what GI50?
17.9 µM (inactive)

# get_value(readout='GI50', item= C[N+](C)(C)CC1CCCC(C[N+](C)(C)C)C1O (stereo not drawn) )
> 100 µM (inactive)

What value of measured GI50 is listed for CC(C)=CCC[C@@H](C)C1=C(O)C(=O)C(C)=C(c2c(I)c(=O)n(C)c(=O)n2C)C1=O ?
> 100 µM (inactive)

Which value of GI50 has been reported for CC(C)CC(NC(=O)C(N)CCC(=O)OCc1ccccc1)C(=O)NC(COCc1ccccc1)C(=O)NC(Cc1ccccc1)C(=O)ON1C(=O)CCC1=O (stereo not drawn) (H-E(OBn)LS(Bn)F-OSu; configuration not given here) in the records?
23.6 µM (inactive)

src = ChEMBL document CHEMBL1201862
